Test details: pH titration of fluorophores (pKa determination)
Format: physicochemical
Readout kind: pKa

* Cc1cc(=O)oc2c(F)c(O)c(F)c(F)c12 | 4.2
* O=c1oc2c(F)c(O)c(F)cc2cc1-c1nc2ccccc2s1 [Compound 17] | 5.0

1. Cc1cc(=O)oc2cc(O)c(F)cc12
2. O=c1cc(C(F)(F)F)c2cc(F)c(O)c(F)c2o1 [Compound 20]
Pick one: 1 or 2 . Which has the bigger pKa number? Pick one and reply with its label.
1

* * *

Test details: Quantum yield of selected dyes (Table 3)
Format: physicochemical
Readout kind: Quantum Yield (pH 9)

a. O=c1cc(C(F)(F)F)c2cc(F)c(O)cc2o1
b. Cc1cc(=O)oc2cc(O)cc(F)c12
For a and b , which recorded Quantum Yield (pH 9) is lower? Pick one and reply with its label.
a
(a: 0.44, b: 0.78)
